Molecular target: human TLR2 (Homo sapiens, UniProt O60603)
Construct: expressed in transfected cells; host or cells: HEK-Blue hTLR2 cells
Sequence (O60603 21-784): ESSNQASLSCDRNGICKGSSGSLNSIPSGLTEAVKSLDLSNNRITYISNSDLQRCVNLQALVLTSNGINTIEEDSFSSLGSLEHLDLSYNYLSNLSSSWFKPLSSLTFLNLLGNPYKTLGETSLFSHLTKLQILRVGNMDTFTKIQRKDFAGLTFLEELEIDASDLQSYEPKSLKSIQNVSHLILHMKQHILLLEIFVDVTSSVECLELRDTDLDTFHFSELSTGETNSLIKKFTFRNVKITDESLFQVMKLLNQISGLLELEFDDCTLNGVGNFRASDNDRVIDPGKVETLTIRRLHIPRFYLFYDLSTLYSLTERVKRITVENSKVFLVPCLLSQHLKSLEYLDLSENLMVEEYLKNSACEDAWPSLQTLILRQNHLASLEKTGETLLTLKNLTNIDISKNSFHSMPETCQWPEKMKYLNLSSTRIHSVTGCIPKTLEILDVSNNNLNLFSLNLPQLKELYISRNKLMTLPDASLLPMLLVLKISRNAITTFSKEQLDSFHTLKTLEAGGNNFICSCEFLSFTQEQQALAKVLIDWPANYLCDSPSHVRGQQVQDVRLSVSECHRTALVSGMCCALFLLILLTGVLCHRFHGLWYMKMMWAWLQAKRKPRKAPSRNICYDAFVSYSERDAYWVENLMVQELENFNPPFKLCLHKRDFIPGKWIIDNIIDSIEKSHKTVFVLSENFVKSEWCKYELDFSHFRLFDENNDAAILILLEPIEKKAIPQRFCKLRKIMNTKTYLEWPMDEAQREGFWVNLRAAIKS
Sequence (Q9Y2C9 32-796 partner): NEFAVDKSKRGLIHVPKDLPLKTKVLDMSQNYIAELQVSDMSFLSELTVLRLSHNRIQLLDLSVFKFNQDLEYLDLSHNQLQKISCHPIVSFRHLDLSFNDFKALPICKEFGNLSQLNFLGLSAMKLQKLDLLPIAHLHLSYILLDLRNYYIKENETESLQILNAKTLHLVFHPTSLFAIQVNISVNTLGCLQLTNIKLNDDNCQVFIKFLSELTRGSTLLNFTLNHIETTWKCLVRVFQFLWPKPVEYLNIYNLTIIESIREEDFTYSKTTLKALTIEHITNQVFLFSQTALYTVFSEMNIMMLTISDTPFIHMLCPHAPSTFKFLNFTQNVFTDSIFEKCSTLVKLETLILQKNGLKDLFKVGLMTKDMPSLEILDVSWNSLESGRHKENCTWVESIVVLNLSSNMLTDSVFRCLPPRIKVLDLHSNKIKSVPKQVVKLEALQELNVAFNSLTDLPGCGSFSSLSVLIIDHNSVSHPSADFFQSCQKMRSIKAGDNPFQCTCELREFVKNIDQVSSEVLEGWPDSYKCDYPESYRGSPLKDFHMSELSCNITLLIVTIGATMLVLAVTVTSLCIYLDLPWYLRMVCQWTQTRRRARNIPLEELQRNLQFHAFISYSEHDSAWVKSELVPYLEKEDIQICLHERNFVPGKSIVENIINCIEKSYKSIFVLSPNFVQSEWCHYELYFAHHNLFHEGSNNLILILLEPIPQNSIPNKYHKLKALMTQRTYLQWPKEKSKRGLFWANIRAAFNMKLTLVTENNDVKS
Test: Activation of human TLR2 III: HEK-Blue hTLR2 dose response (SEAP reporter)
Type: cell-based
Conditions: 1.95 pg/mL

Molecule	Target Or Test System	Average optical density (650 nm)
CCCCCCCCCCCCCC[C@H](C)C(=O)OCC[C@H](CSC[C@H](N)C(=O)N[C@@H](CO)C(=O)NCCOCCOCCOCCOCCOCCOCCOCCOCCOCCOCCOCCOCCOCCOCCOCCOCCOCCOCCOCCOCCOCCOCCOCCOCCOCCOCCOCCOCCC(=O)NCC(N)=O)OC(=O)[C@@H](C)CCCCCCCCCCCCCC [Compound B16]	human TLR2 (Homo sapiens, UniProt O60603)	1.521
CCCCCCCCCCCCCCC(C)C(=O)OC[C@H](CSC[C@H](N)C(=O)N[C@@H](CO)C(=O)NCCOCCOCCOCCOCCOCCOCCOCCOCCOCCOCCOCCOCCOCCOCCOCCOCCOCCOCCOCCOCCOCCOCCOCCOCCOCCOCCOCCOCCC(=O)NCC(N)=O)OC(=O)C(C)CCCCCCCCCCCCCC (stereo partly shown) [Compound B4]	human TLR2 (Homo sapiens, UniProt O60603)	1.823
CCCCCCCCCCCCCC[C@@H](C)C(=O)OCC[C@H](CSC[C@H](N)C(=O)N[C@@H](CO)C(=O)NCCOCCOCCOCCOCCOCCOCCOCCOCCOCCOCCOCCOCCOCCOCCOCCOCCOCCOCCOCCOCCOCCOCCOCCOCCOCCOCCOCCOCCC(=O)NCC(N)=O)OC(=O)[C@H](C)CCCCCCCCCCCCCC [Compound B14]	human TLR2 (Homo sapiens, UniProt O60603)	2.018
CCCCCCCCCCCCCCC(C)C(=O)OCC[C@H](CSC[C@H](N)C(=O)N[C@@H](CO)C(=O)NCCOCCOCCOCCOCCOCCOCCOCCOCCOCCOCCOCCOCCOCCOCCOCCOCCOCCOCCOCCOCCOCCOCCOCCOCCOCCOCCOCCOCCC(=O)NCC(N)=O)OC(=O)C(C)CCCCCCCCCCCCCC (stereo partly shown) [Compound B12]	human TLR2 (Homo sapiens, UniProt O60603)	2.045

* * *

Target: human TLR2 (Homo sapiens)
Construct: expressed in transfected cells; host or cells: HEK-Blue hTLR2 cells
Experiment: Activation of human TLR2 III: HEK-Blue hTLR2 dose response (SEAP reporter)
Format: cell-based
Details: HEK-Blue hTLR2; 0.49 pg/mL; read-out: Fold Induction (ratio of average induced value to average non-induced value)
Attribute: fold induction at 490 fg/mL
Recorded Metric: fold induction at 490 fg/mL

Compound	Measured Value
CCCCCCCCCCCCCCC(C)C(=O)OC[C@H](CSC[C@H](N)C(=O)N[C@@H](CO)C(=O)NCCOCCOCCOCCOCCOCCOCCOCCOCCOCCOCCOCCOCCOCCOCCOCCOCCOCCOCCOCCOCCOCCOCCOCCOCCOCCOCCOCCOCCC(=O)NCC(N)=O)OC(=O)C(C)CCCCCCCCCCCCCC (stereo partly shown)	20.5
CCCCCCCCCCCCCC[C@@H](C)C(=O)OCC[C@H](CSC[C@H](N)C(=O)N[C@@H](CO)C(=O)NCCOCCOCCOCCOCCOCCOCCOCCOCCOCCOCCOCCOCCOCCOCCOCCOCCOCCOCCOCCOCCOCCOCCOCCOCCOCCOCCOCCOCCC(=O)NCC(N)=O)OC(=O)[C@H](C)CCCCCCCCCCCCCC	25.5
CCCCCCCCCCCCCC[C@H](C)C(=O)OCC[C@H](CSC[C@H](N)C(=O)N[C@@H](CO)C(=O)NCCOCCOCCOCCOCCOCCOCCOCCOCCOCCOCCOCCOCCOCCOCCOCCOCCOCCOCCOCCOCCOCCOCCOCCOCCOCCOCCOCCOCCC(=O)NCC(N)=O)OC(=O)[C@@H](C)CCCCCCCCCCCCCC	15.3
CCCCCCCCCCCCCCC(C)C(=O)OCC[C@H](CSC[C@H](N)C(=O)N[C@@H](CO)C(=O)NCCOCCOCCOCCOCCOCCOCCOCCOCCOCCOCCOCCOCCOCCOCCOCCOCCOCCOCCOCCOCCOCCOCCOCCOCCOCCOCCOCCOCCC(=O)NCC(N)=O)OC(=O)C(C)CCCCCCCCCCCCCC (stereo partly shown)	25.5

Data origin: patent US20230278954A1
